Hello, the source for this data is a melting point compilation (Tetko et al.; mined from patent text by program, amines drawn as free bases though some values may be those of a salt), in case you need it.

Measured melting point values are reported for all entries that follow.

Record excerpt, results attached:
| compound | melting point |
| --- | --- |
| CC(C)c1n[nH]c2c(Cl)nc(Cl)nc12 | > 250 °C |
| CCSc1ccc(-c2ncco2)c2c1C(=O)CC(C)C2 (stereo not given) | 111 to 113 °C |
| COCN1C(C)=C(C(=O)OC)C(c2ccccc2)C(C(=O)OCOC(=O)C(C)(C)C)=C1C (single isomer, unassigned; (+)) | 80 to 81 °C |
| CC(C)(C)OC(=O)C(Cl)=CC1C(C(=O)O)C1(C)C (stereo not given) | 65 °C |
| COc1ccccc1OCCCl | 36 to 38 °C |
| O=C(Nc1ccc(C(=O)N2C[C@@H]3CCCN3C(=O)c3ccccc32)cc1)c1ccccc1-c1ccccc1 | 233 to 235 °C |
| Brc1ccc(SCCOCCSc2ccc(Br)cc2)cc1 | 53 °C |
| N=C(NCc1cccnc1)N[N+](=O)[O-] | 185 to 190 °C |
| CC(=O)OC1CSC(Oc2cncc(S(=O)(=O)c3ccc(F)cc3)c2)C(OC(C)=O)C1OC(C)=O (stereo not given) | 128 °C |
| Cc1cc2c(c(O)c1O)C(=O)c1c(O)cccc1C2=O | 239 to 240 °C |

Next:
Which melting point is reported for this compound? CC(NC(=S)NCC(COC(=O)C(C)(C)C)Cc1ccc(C(C)(C)C)cc1)c1ccc(NS(C)(=O)=O)c(F)c1 (stereo not given)
78 °C

###

Measured melting point values are reported for all entries that follow.

Record excerpt, results attached:
| compound | melting point |
| --- | --- |
| Cc1ccc(N(c2ccccc2)c2ccc(-c3ccc(N(c4ccccc4)c4ccc(C)cc4)cc3)cc2)cc1 | 163 to 164 °C |
| CNc1ccc(C#N)cc1 | 85 to 87 °C |
| Cc1ccccc1C(=O)N1CCC(=O)c2cc(F)c(Cl)cc21 | 84.9 to 88.7 °C |
| OC1CSC(Oc2cc(-c3ccc(F)nc3)cnc2F)C(O)C1O (centres undefined) | 158 to 159 °C |
| CC(C)n1nc(-c2sc(NC(=N)N)nc2-c2ccccc2)ccc1=O | > 250 °C |
| NC(=O)CCCCC1OCC(c2cccc3ccccc23)CO1 (centres undefined) | 158 to 160 °C |
| CC(C)c1c(Cl)nc(NC=O)nc1Cl | 95 to 96 °C |
| O=C(Nc1ccc(CN2C(=O)[C@H]3CCC[C@H]3N(C(=O)CN3C(=O)c4ccccc4C3=O)c3ccccc32)cc1)OCc1ccccc1 (relative stereo) | 144 to 147 °C |

Which melting point is reported for this compound? COc1ccc(Cl)cc1C(=O)c1cc(C(F)(F)F)ccc1NC(=O)OC(C)(C)C
148 to 150 °C

###

Measured melting point values are reported for all entries that follow.

Record excerpt, results attached:
| molecule | melting point |
| --- | --- |
| NC(=O)OCC(Cc1ccccc1)NC(=O)C1CCN(c2c(Cl)cncc2Cl)CC1 (stereo not drawn) | 147 to 149 °C |
| CC(C)NC(=O)Nc1cc(-c2c(-c3ccc(F)cc3)nc3cccnn23)ccn1 | 222 to 223 °C |
| CN(C)Cc1ccc(CSCCNC(=O)NCCCCN(C)CCN(Cc2ccc(F)cc2)c2ccccn2)o1 | 74 °C |
| CC(C)(C)C=C[C@H](O)c1ccc(F)cc1 | 38 to 40 °C |
| O=[N+]([O-])c1ccc(Oc2ccc(C34CC5CC(C3)CC(c3ccc(Oc6ccc([N+](=O)[O-])c(O)c6)cc3)(C5)C4)cc2)cc1O | 118 to 122 °C |
| CC(C)(CCO)c1ccc(C(=O)Nc2cn3cc(-n4ccnc4)ccc3n2)cc1 | 225 to 227 °C |
| COc1cc(C2CCN(C(=O)C(C)(C)N)CC2)ccc1Nc1ncc2ccc(-c3ccccc3N(C)S(C)(=O)=O)n2n1 | 92 to 100 °C |

Next:
Which melting point is reported for this molecule? CCOC(=O)C(C)(C)NC(=O)C(Br)c1ccccc1 (stereo not drawn)
81 to 83 °C

###

reportedProperty: melting point

| molecule | reportedProperty | measurement |
| --- | --- | --- |
| CCCCCCC(C)(C)c1cc(OC)c(C2=C[C@@H]3CC[C@@]2(CO)C3(C)C)c(OC)c1 | melting point | 49 to 51 °C |
| Cc1oc2c(Br)cc(C(CCOS(C)(=O)=O)CCOS(C)(=O)=O)cc2c1C | melting point | 154 to 156 °C |
| COC(=O)CC1CCN(C(=O)C2CCN(c3ccc(C#N)cn3)CC2)CC1 | melting point | 112 to 115 °C |
| CC1C(=O)N(c2cccc(Cl)c2)N=C1N (stereo not given) | melting point | 138 °C |
| CC1=Nc2ccc(C)cc2C(O)(c2ccccc2)N1N (stereo not given) | melting point | 192 to 196 °C |

Which melting point is reported for this molecule? CCCc1c(C(=O)C2CCCCC2)c2ccc(C(N)=O)cc2n1Cc1ccccc1Cl
208 to 210 °C

Which melting point is reported for this molecule? Oc1nn(-c2ccccc2)cc1Cc1ccccc1
185 to 186 °C

Which melting point is reported for this molecule? C=Cc1cccc2[nH]cc(S(=O)(=O)c3ccccc3)c12
125 to 128 °C

Which melting point is reported for this molecule? COc1ccc(-c2nc(C(F)(F)F)c(Br)[nH]2)cc1Cl
228 °C

Which melting point is reported for this molecule? CCCCC(CCCC)(CC(=O)Nc1cccc(OCc2ccc3ccc(F)cc3n2)c1)C(=O)O
156 to 157 °C

###

Measured melting point values are reported for all entries that follow.

Record excerpt, results attached:
| compound | melting point |
| --- | --- |
| CCOc1cc2c(cc1OCC)CCCC(C(=O)N1CCN(Cc3cc(OC)c(OC)c(OC)c3)CC1)=C2 | 133 to 134 °C |
| Cc1c(-c2ccccc2)nn(C(C)C(=O)N(C)C)c1[N+](=O)[O-] (centres undefined) | 141 to 143 °C |
| O=C(NO)c1ccc(C(=O)NC/C=C/c2ccccc2)cc1 | 169 to 170 °C |

Which melting point is reported for this compound? COC1CC(NC(=O)C(F)(F)F)C(OCc2ccccc2)C(C)O1 (centres undefined)
159 to 160 °C

Which melting point is reported for this compound? CCC(=O)OC[C@H]1O[C@@H]2[C@@H](Sc3ccc(Cl)cc3N2CCN(CC)CC)[C@@H](OC(=O)CC)[C@@H]1OC(=O)CC
125 to 127 °C

###

Measured melting point values are reported for all entries that follow.

Record excerpt, results attached:
| compound | measurement |
| --- | --- |
| O=S(=O)(c1ccc(F)cc1)n1ccc2ccccc21 | 135 to 137 °C |
| CC(=O)C(=Cc1ccc(C#N)cc1)C(=O)C1CC1 | 83 to 85 °C |
| CCOC(=O)c1cnc(Cl)c([N+](=O)[O-])c1NC | 70 to 72 °C |
| Nc1nc(NCCO)nc(-c2cc(Cl)ccc2Cl)n1 | 198 to 199 °C |
| CCCCOc1c(CNC(=O)OC(C)(C)C)n(CC(C)C)c(=O)c2ccc(-c3nc(C(N)=O)cs3)cc12 | 195 to 196 °C |

Which melting point is reported for this compound? CCOP(=O)(C=Cc1ccc([N+](=O)[O-])cc1)OCC
95 to 98 °C

###

Measured melting point values are reported for all entries that follow.

Record excerpt, results attached:
| compound | melting point |
| --- | --- |
| O=C(CCl)NCC(O)(c1ccccc1)c1ccccc1 | 178 to 180 °C |
| CC(C)(C)c1cc(C=C2Sc3ccccc3N(CC(N)=O)C2=O)cc(C(C)(C)C)c1O | 137 to 144 °C |
| CN1c2ccccc2-c2nc3ccc(/C=C/C(N)=O)cc3c3cccc1c23 | 284 to 286 °C |
| CCC(C(C)=CC(CNC(=O)c1cccnc1F)=NO)[N+](=O)[O-] (stereo not given) | 91 to 92 °C |
| COc1ccccc1Sc1c(NS(=O)(=O)c2ccc(C(C)(C)C)cc2)nc(CO)nc1OC | 152 °C |
| CC(=O)SCC(=Cc1ccccc1)C(=O)NCCC(=O)OCc1ccccc1 | 80 °C |

Which melting point is reported for this compound? O=C(O)[C@@H]1C[C@H](Cc2ccc(Cl)cc2)CN1
233 to 235 °C

Which melting point is reported for this compound? COc1ccc(N2CCN(c3c(C)c(C)c4c(c3C)C(O)C(C)(C)O4)CC2)cc1OC (stereo not given)
150 to 151 °C

Which melting point is reported for this compound? C=CCNC(=O)c1ccc(N)cc1Br
115 to 117 °C

Which melting point is reported for this compound? CC1CCNC1=C[N+](=O)[O-] (stereo not given)
47 to 47.5 °C

###

reportedProperty: melting point

Record excerpt, results attached:
| compound | melting point |
| --- | --- |
| CC(C)C(=O)Oc1cc(-c2cn3c(n2)sc2ccccc23)cc([N+](=O)[O-])c1OC(=O)C(C)C | 197 to 199 °C |
| CC(C)n1nc(-c2sc(C(=O)NCCc3ccccn3)nc2-c2ccc(F)cc2)ccc1=O | 144 to 145 °C |
| FC(F)(F)c1c[nH]c(-c2cccc(OCC3CO3)c2)n1 (stereo unspecified) | 145 to 146 °C |
| O=C(OCC(F)(F)F)C(O)C(O)C(=O)OCC(F)(F)F (stereo unspecified) | 77 to 79 °C |
| CC(C)CC(CS)C(=O)NCCCCCCCC(=O)N[C@@H](CCCNC(=N)N)C(=O)O (stereo partly specified) | 102 to 130 °C |

Which melting point is reported for this compound? CCNC(=O)N1N=C(c2ccc([N+](=O)[O-])cc2)c2cc(Cl)ccc2CC1C (stereo unspecified)
170 to 172 °C

Which melting point is reported for this compound? O=[N+]([O-])c1cccnc1Nc1cc(F)ccc1F
150 to 152 °C

Which melting point is reported for this compound? Cc1cc(C)c(OC(=O)NC2CC2c2ccc(-c3ncn(-c4ccc(OC(F)(F)F)cc4)n3)cc2)c(C)c1 (stereo unspecified)
199 to 202 °C

Which melting point is reported for this compound? Cc1ccc(C#N)cc1Cl
46.5 to 47.5 °C

Which melting point is reported for this compound? C=C(C)n1c(C)c(-c2ccc(F)cc2)c2cccnc21
84 to 87 °C

Which melting point is reported for this compound? Clc1ccc(OCc2ccnc3ncnn23)cc1
193 to 194 °C

Which melting point is reported for this compound? CC(C)(C)OC(=O)Nc1cccc(C(=O)OCOC(=O)C(C)(C)C)c1
88 to 89 °C

Which melting point is reported for this compound? O=C(c1ccc(Cn2cnc3ccncc32)cc1)N1CCOCC1
143 to 144 °C

Which melting point is reported for this compound? CC(C)c1ccc(C#CC(C)N(O)C(N)=O)cc1 (stereo unspecified)
154 to 156 °C

Which melting point is reported for this compound? CCCCn1c(=O)n(C(C)C)c(=O)c2[nH]c(C)nc21
172 to 173 °C

Which melting point is reported for this compound? CC(=O)OC1CSC(Oc2cncc(-c3ccc(C#N)c(C)c3)c2)C(OC(C)=O)C1OC(C)=O (stereo unspecified)
74 to 80 °C

Which melting point is reported for this compound? CC(C)Oc1ccc(NC(=S)NCc2ccsc2)cc1
80.5 to 81.5 °C

Which melting point is reported for this compound? CCCC1=C(C(=O)OCC)C(c2cccc(C(F)(F)F)c2Cl)c2c[nH]nc2N1 (stereo unspecified)
236 to 238 °C
